Recorded measurements of Antibacterial Activity (MIC), one per entry
tested on: Staphylococcus aureus A-5278; assay: In vitro antibacterial activity, agar dilution MIC; type: cell-based; conditions: code CC, BHI agar, 35-37° C., 20 to 24 hours, unit assumed

Use these answered entries as a reference point.
{"columns": ["compound", "assay_system", "Antibacterial Activity (MIC)"],
 "data": [
  ["C=CCC1(C)C(=O)OC(CC)C2(C)OC(=O)NC2C(C)C(=O)C(C)CC(C)(OCC=Cc2cnc3ccccc3c2)C(OC2OC(C)CC(N(C)C)C2O)C(C)C1=O (stereo not drawn) [Example 4]", "Staphylococcus aureus A-5278", "> 100 µg/mL"],
  ["CCC1OC(=O)C(C)(O)C(=O)C(C)C(OC2OC(C)CC(N(C)C)C2O)C(C)(OCC(O)CO)CC(C)C(=O)C(C)C2NC(=O)OC12C (stereo not drawn) [Example 3]", "Staphylococcus aureus A-5278", "> 100 µg/mL"]
]}

Next:
Form entry - test system: Staphylococcus aureus A-5278; read-out: Antibacterial Activity (MIC); compound: CCC1OC(=O)C(C)(O)C(=O)C(C)C(OC2OC(C)CC(N(C)C)C2O)C(C)(OCC=Cc2cnc3ccccc3c2)CC(C)C(=O)C(C)C2NC(=O)OC12C (stereo not drawn) [Example 8]
> 100 µg/mL

###

tested on: Enterococcusfaecium ATCC X043; assay: In vitro antibacterial activity, agar dilution MIC; format: cell-based; conditions: code II, BHI agar, 35-37° C., 20 to 24 hours, unit assumed
Field: label. Allowed values: 1 (yes) (Antibacterial Activity (MIC) < 0.4 µg/mL) or 0 (no) (Antibacterial Activity (MIC) >= 0.4 µg/mL).

Check if Antibacterial Activity (MIC) falls below 0.4 µg/mL for CC[C@H]1OC(=O)[C@H](C)[C@@H](O[C@H]2C[C@@](C)(OC)[C@@H](O)[C@H](C)O2)[C@H](C)[C@@H](O[C@@H]2O[C@H](C)C[C@H](N(C)C)[C@H]2O)[C@](C)(O)C[C@@H](C)C(=O)[C@H](C)[C@@H](O)[C@]1(C)O [Ery. A standard, Erythromycin A, reference compound] .
1 (yes)

###

system: Enterococcusfaecium ATCC X043; experiment: In vitro antibacterial activity, agar dilution MIC; assay type: cell-based; details: code II, BHI agar, 35-37° C., 20 to 24 hours, unit assumed
Lab note: anything with Antibacterial Activity (MIC) at or over 0.4 µg/mL counts as Met; the rest go in Not met.

{"columns": ["molecule", "answer_label"],
 "data": [
  ["CCC1OC(=O)C(C)(O)C(=O)C(C)C(OC2OC(C)CC(N(C)C)C2O)C(C)(OCC(O)CO)CC(C)C(=O)C(C)C2NC(=O)OC12C (stereo not drawn) [Example 3]", "Met"],
  ["CCC1OC(=O)C(C)(O)C(=O)C(C)C(OC2OC(C)CC(N(C)C)C2O)C(C)(OCC=Cc2cnc3ccccc3c2)CC(C)C(=O)C(C)C2NC(=O)OC12C (stereo not drawn) [Example 8]", "Not met"],
  ["C=CCC1(C)C(=O)OC(CC)C2(C)OC(=O)NC2C(C)C(=O)C(C)CC(C)(OCC=Cc2cnc3ccccc3c2)C(OC2OC(C)CC(N(C)C)C2O)C(C)C1=O (stereo not drawn) [Example 4]", "Not met"]
]}

Does the molecule C#CCOC1(C)CC(C)C(=O)C(C)C2NC(=O)OC2(C)C(CC)OC(=O)C(C)(CC=Cc2ccccc2)C(=O)C(C)C1OC1OC(C)CC(N(C)C)C1O (stereo not drawn) [Example 9] have recorded Antibacterial Activity (MIC) that is 0.4 µg/mL or more?
Met

CCC1OC(=O)C(C)(CC=Cc2ccccc2)C(=O)C(C)C(OC2OC(C)CC(N(C)C)C2O)C(C)(OC)CC(C)C(=O)C(C)C2NC(=O)OC12C (stereo not drawn) [Example 1] ?
Met

Source: patent US6355620B1
